Test system: Fibroblast
Experiment: Multiplex assay against human fibroblast
Type: toxicity, cell-based
Settings: 48 h, 1 µM, compound concentration 1 uM, replicate 2
result-type: Population Mitochondria Different-Phenotype (%)

INSERT INTO results (compound, value_measured) VALUES
  ('CCCCCCNC(=O)Nc1ccc(S(=O)(=O)Nc2ccc(CCNC[C@H](O)COc3ccc(O)cc3)cc2)cc1', 6),
  ('CC(C)C[C@H](CO)Nc1nc(S[C@@H](C)c2ccccc2)nc2nc(N)sc12', 4),
  ('O=C(Nc1cc(-c2ccccc2)nn1-c1ccccc1F)c1ccc([N+](=O)[O-])cc1', 4),
  ('COc1cc(OC2CCN(C(C)=O)CC2)ccc1C(=O)N1CCC(N2C(=O)OCc3ccccc32)CC1', 4),
  ('N[C@](CC1c2ccccc2Oc2ccccc21)(C(=O)O)[C@H]1C[C@@H]1C(=O)O', 5),
  ('CSc1nc(NC2CCCC2)c([N+](=O)[O-])c(NC2CCCC2)n1', 14),
  ('CCCCC[C@H](O)/C=C/[C@H]1[C@H](O)CC(=O)[C@@H]1CCCCCCC(=O)O', 8),
  ('Cl.Cl.OCCOCCN1CCN(C(c2ccccc2)c2ccc(Cl)cc2)CC1 (centres undefined) [HYDROXYZINE HYDROCHLORIDE]', 5),
  ('Nc1nc(CC(=O)Nc2ccc(CCNC[C@H](O)c3ccccc3)cc2)cs1', 10);

----------
The following compounds are shown together with reported Population Hoechst High Intensity Objects (%) values.
System: Fibroblast
Assay: Multiplex assay against human fibroblast
Format: toxicity, cell-based
Conditions: 24 h, 1 µM, compound concentration 1 uM, replicate 2
result-type: Population Hoechst High Intensity Objects (%)

INSERT INTO results (compound, measured_target, value_measured) VALUES
  ('COc1cc2nc(N3CCN(C(=O)COc4c(OC)cccc4C(C)C)CC3)nc(N)c2cc1OC.Cl.Cl', 'Fibroblast', 11),
  ('N[C@](CC1c2ccccc2Oc2ccccc21)(C(=O)O)[C@H]1C[C@@H]1C(=O)O', 'Fibroblast', 4),
  ('Nc1nc(-c2ccco2)c2cnn(Cc3ccccc3F)c2n1', 'Fibroblast', 6),
  ('CN1C[C@H](C(=O)N[C@]2(C)O[C@@]3(O)[C@@H]4CCCN4C(=O)[C@H](Cc4ccccc4)N3C2=O)C[C@@H]2c3cccc4[nH]cc(c34)C[C@H]21.CS(=O)(=O)O [DIHYDROERGOTAMINE MESYLATE]', 'Fibroblast', 4),
  ('CCc1nn2c(C)cc(C)nc2c1Cc1ccc(-c2nnc(C3CCNCC3)o2)cc1', 'Fibroblast', 7),
  ('Cc1cc(-c2ccc3c(c2)CC[C@H]3N2CC3(CCN(C(=O)Cc4cn5cc(C)sc5n4)CC3)C2)ncn1 [PF-5190457]', 'Fibroblast', 3),
  ('COCCn1c(C)c(C)s/c1=N\C(=O)C1C(C)(C)C1(C)C', 'Fibroblast', 3),
  ('Cc1sc2c(c1C)C(c1ccc(Cl)cc1)=N[C@H](CC(=O)OC(C)(C)C)c1nnc(C)n1-2', 'Fibroblast', 6);

----------
# Total Cell Count per entry
System: Fibroblast
Assay: Multiplex assay against human fibroblast
Format: toxicity, cell-based
Conditions: 48 h, 1 µM, compound concentration 1 uM, replicate 2
result-type: Total Cell Count

INSERT INTO measurements (compound, value_measured) VALUES
  ('CCCCCCNC(=O)Nc1ccc(S(=O)(=O)Nc2ccc(CCNC[C@H](O)COc3ccc(O)cc3)cc2)cc1 [L-755507]', 170),
  ('COC(c1ccccc1)(c1ccccc1)[C@H](Oc1nc(C)cc(C)n1)C(=O)O [AMBRISENTAN]', 154),
  ('Cc1cc(NC(=O)NCCN2CCC(O)(Cc3ccccc3)CC2)c2ccccc2n1 [PALOSURAN]', 149),
  ('COc1ccc2c(c1OCc1ccccc1)C[C@@H](C(=O)O)N(C(=O)C(c1ccccc1)c1ccccc1)C2 [OLODANRIGAN]', 156);
